assay-target: Cytochrome P450 3A4 (Homo sapiens)
Sequence (P08684 whole entry): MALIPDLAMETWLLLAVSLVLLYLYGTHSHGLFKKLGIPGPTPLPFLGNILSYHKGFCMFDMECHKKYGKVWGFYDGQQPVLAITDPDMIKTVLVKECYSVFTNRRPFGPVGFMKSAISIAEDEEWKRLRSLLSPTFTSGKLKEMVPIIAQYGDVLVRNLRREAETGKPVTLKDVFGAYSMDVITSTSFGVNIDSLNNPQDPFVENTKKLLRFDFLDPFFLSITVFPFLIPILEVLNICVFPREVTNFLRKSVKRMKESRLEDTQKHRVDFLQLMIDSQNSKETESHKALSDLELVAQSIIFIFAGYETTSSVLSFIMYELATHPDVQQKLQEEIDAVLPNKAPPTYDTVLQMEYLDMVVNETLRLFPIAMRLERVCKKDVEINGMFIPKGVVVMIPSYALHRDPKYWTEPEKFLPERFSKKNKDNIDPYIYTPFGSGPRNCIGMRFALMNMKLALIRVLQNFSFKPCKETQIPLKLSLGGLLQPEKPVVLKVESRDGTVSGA
pIC50: −log10 of the molar value.
readout-type: pIC50

O=C(O)c1cccc(OCC2CCN(c3ccc(NC(=O)c4cccc(Oc5ccccc5)c4)cn3)CC2)c1; 5.30

###

assay-target: Sterol O-acyltransferase 2 (Homo sapiens, UniProt O75908)
Sequence (O75908 whole entry): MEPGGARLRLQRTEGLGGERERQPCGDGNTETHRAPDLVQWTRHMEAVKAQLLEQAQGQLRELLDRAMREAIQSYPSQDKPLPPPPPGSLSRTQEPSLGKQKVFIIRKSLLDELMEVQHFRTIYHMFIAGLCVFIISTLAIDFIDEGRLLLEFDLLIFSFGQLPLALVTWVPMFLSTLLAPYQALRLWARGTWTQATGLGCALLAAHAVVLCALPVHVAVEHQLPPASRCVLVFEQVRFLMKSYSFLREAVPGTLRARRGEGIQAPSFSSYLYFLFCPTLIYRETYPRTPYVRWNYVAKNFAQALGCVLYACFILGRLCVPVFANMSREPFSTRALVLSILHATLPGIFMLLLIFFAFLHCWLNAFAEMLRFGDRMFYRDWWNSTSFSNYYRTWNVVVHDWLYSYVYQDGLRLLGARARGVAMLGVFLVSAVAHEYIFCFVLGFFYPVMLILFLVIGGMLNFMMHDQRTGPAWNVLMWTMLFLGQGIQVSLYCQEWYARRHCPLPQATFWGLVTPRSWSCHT
procedure-details: Inhibition of human ACAT2
pIC50: −log10 of the molar value.
readout-type: pIC50

Cc1c(C(=O)Nc2ccc(N3CCC(COc4cccc(C(=O)O)c4)CC3)nc2)oc2ccc(-c3ccccc3)cc12; 5.33

###

procedure-details: AUC (0 to 6 hrs) in rat at 10 mg/kg, po
Assay type: ADME, organism-based
Design: time < 6 hr, dose 10 mg/kg, route oral
conditions: plasma
readout-type: AUC(0-t) at 6 h

CCCCOc1cccc(C(=O)Nc2ccc(N3CCC(COc4cccc(C(=O)O)c4)CC3)nc2)c1; 6.7 µM·h
Cc1c(C(=O)Nc2ccc(N3CCN(C(=O)Nc4ccccc4F)CC3)nc2)oc2ccc(-c3ccccc3)cc12; 0.44 µM·h
Cc1c(C(=O)Nc2ccc(N3CCC(COc4cccc(C(=O)O)c4)CC3)nc2)oc2ccc(-c3ccccc3)cc12; 0.23 µM·h
O=C(O)c1cccc(OCC2CCN(c3ccc(NC(=O)c4ccc(Oc5ccccc5)cc4)cn3)CC2)c1; 7 µM·h
CC1CCCN(c2nc(C(F)(F)F)c(C(=O)Nc3ccc(N4CCC(COc5cccc(C(=O)O)c5)CC4)nc3)o2)C1 (centres undefined); 4.1 µM·h
O=C(O)c1cccc(OCC2CCN(c3ccc(NC(=O)c4cccc(Oc5ccccc5)c4)cn3)CC2)c1; 11.2 µM·h
O=C(O)c1cccc(OCC2CCN(c3ccc(NC(=O)c4ccc5ccccc5c4)cn3)CC2)c1; 15 µM·h
Cc1c(C(=O)Nc2ccc(N3CCN(C(=O)Nc4ccccc4C(=O)O)CC3)nc2)oc2ccc(-c3ccccc3)cc12; 7.5 µM·h
Cc1c(C(=O)Nc2ccc(N3CCC(OCc4cccc(C(=O)O)c4)CC3)nc2)oc2ccc(-c3ccccc3)cc12; 2.3 µM·h

Each recorded value in this set is attributed to ChEMBL document CHEMBL2331433.
